B1: SMARCE1 (parent)
chain: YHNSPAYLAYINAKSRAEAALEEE

# Variants of: B1
# measurement_description: protein stability index of a GFP-peptide fusion (GPS, HEK-293T) (PSI 1-6); higher = more stable;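 further: lentivirally expressed fusions sorted by FACS into six bins by GFP to DsRed ratio, PSI derived from sequencing read proportions per bin multiplied by bin number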
# test_conditions: c terminus: a fixed tail appended
property: protein stability index

mutant_code=E22C experimental_result=2.17
mutant_code=L21D experimental_result=1.88
mutant_code=A9S experimental_result=2.96
mutant_code=R16T experimental_result=2.55
mutant_code=A13K experimental_result=2.52
mutant_code=P5E experimental_result=1.82
mutant_code=R16P experimental_result=2.12
mutant_code=A6D experimental_result=2.12
mutant_code=I11F experimental_result=2.67
mutant_code=E23Q experimental_result=1.59
mutant_code=L8T experimental_result=2.81
